# target-or-system: DGKζ (Homo sapiens (Human), UniProt Q13574)
# Sequence (Q13574 other isoform, or with tags, fused parts or gaps): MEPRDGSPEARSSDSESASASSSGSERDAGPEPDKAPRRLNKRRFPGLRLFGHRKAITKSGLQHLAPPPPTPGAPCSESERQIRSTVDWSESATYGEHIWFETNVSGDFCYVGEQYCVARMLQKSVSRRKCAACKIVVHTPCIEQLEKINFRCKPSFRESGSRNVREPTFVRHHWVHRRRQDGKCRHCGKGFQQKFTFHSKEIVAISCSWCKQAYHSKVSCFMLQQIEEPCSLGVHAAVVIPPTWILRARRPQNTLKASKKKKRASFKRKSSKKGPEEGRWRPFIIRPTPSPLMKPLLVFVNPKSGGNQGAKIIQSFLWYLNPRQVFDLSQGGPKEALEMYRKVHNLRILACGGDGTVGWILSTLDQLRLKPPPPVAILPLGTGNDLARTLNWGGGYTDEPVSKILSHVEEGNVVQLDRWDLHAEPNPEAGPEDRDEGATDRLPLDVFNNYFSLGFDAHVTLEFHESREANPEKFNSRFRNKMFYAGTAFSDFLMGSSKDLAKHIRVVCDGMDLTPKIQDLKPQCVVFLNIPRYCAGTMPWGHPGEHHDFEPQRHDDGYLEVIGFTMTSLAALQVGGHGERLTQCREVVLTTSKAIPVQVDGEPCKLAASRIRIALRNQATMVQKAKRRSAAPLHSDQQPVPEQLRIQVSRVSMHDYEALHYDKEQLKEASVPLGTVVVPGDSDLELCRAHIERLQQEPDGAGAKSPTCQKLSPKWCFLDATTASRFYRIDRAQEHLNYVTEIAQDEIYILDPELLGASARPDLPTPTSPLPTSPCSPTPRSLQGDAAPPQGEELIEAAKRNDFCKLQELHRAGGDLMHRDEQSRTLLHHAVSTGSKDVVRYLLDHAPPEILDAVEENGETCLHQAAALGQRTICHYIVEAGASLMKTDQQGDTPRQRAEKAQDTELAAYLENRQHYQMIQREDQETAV
# protocol-description: Biochemical DGK IC50 assay (ADP-Glo, lipid micelle substrate), DGKζ
# assay-setup: full length DGKζ 0.5 nM, ATP 140 μM, DAG 80 μM
pIC50: −log10 of the molar value.
assay-readout: pIC50

Sample answers from the record:
IN: Fill blank: measured pIC50 of the compound CC[C@H]1CN(C(C)c2ccn3nccc3n2)[C@H](CC)CN1c1cc(=O)n(C)c2cn(CC#N)nc12 (single isomer, unassigned) [Compound A154a] is ____.
OUT: < 5.00

IN: Do the same for CC[C@H]1CN(C(C)c2ccc(CN3CCCC3)cc2)[C@H](CC)CN1c1cc(=O)n(C)c2cn(CC#N)nc12 (single isomer, unassigned) [Compound A26b] please
OUT: < 5.00

IN: Try the compound CC[C@H]1CN(C(C)c2ccn3nc(C)c(F)c3n2)[C@H](CC)CN1c1nc(=O)n(C)c2cn(CC#N)nc12 (single isomer, unassigned) [Compound A170a]
OUT: < 5.00

Further cases:
IN: Endpoint output: pIC50 of CC[C@H]1CN(C(C)c2ccc(C(=O)N(C)CCOC)cc2)[C@H](CC)CN1c1cc(=O)n(C)c2cn(CC#N)nc12 (single isomer, unassigned) [Compound A195a] . Value?
OUT: 5.85
